tgt: human TMEM16A (TMEM16Aabc variant) (Homo sapiens, UniProt Q5XXA6, DEL476-501)
Sequence (Q5XXA6 with tags, fused parts or gaps isoform Q5XXA6-5 DEL539-564): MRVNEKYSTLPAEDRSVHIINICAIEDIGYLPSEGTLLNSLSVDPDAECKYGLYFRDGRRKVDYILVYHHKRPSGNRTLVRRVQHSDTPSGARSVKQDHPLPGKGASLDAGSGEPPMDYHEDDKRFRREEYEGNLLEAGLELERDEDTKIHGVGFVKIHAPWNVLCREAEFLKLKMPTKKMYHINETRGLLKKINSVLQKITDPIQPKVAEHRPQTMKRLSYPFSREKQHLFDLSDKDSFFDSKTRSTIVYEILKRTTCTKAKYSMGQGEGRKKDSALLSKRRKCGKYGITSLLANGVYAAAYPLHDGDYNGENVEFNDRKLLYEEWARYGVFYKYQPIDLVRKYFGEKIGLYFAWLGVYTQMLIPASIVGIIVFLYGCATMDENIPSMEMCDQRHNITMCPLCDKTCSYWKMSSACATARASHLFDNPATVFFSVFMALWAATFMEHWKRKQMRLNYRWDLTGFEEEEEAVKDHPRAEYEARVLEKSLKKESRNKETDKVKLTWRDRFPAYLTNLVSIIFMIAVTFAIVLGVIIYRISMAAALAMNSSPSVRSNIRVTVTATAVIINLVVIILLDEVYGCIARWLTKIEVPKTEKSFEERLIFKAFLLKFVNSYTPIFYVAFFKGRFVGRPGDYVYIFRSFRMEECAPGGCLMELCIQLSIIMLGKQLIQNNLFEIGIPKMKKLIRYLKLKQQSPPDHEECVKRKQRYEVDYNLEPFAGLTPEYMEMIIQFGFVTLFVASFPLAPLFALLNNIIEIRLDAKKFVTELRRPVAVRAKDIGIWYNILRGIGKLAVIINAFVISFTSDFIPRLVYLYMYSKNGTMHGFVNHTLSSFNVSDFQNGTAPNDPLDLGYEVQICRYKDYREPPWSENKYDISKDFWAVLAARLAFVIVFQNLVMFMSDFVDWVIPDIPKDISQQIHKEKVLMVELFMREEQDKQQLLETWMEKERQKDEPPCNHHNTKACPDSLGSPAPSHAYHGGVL
assay_details: Automated whole-cell patch clamp (Qpatch) TMEM16A potentiator assay in recombinant FRT cells
recorded_conditions: minimum n = 2
measurement_kind: EC50 (nM)

molecule | EC50 / nM
CC1(NC(=O)c2cc(NC(=O)Cc3cc(O)c(C(C)(C)C)cc3F)ccn2)CC1 | 38
Cc1cc(C(C)(C)O)c(O)cc1CC(=O)Nc1ccnc(C(=O)NC2(C(F)(F)F)CC2)c1 | 42
CC(C)(O)c1cc(F)c(CC(=O)Nc2ccnc(C(=O)NC3(C(F)(F)F)CC3)c2)cc1O | 64
CC(C)(CO)NC(=O)c1cc(NC(=O)Cc2cc(O)c(C(C)(C)CO)cc2F)ccn1 | 238
O=C(Cc1cc(O)c(C2(CO)CCC2)cc1F)Nc1ccnc(C(=O)NC2(C(F)(F)F)CC2)c1 | 37

P: CC(C)(CO)c1cc(F)c(CC(=O)Nc2ccnc(C(=O)NC3(C(F)(F)F)CC3)c2)cc1O
Q: CC(C)(C)NC(=O)c1cc(NC(=O)Cc2cc(O)c(C3(C#N)CC3)cc2F)ccn1
Which has the higher EC50, P or Q ? Identify your pick by its label.
Q
(Q: 69 nM, P: 30 nM)
